PROTOCOL DETAILS: NCI Yeast Anticancer Drug Screen. Data for the sgs1 mgt1 strain (AID 161);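 note: 0% = growth of cultures given vehicle only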
MEASUREMENT CONDITIONS: S. cerevisiae sgs1 mgt1 strain, at 5.0 µM (retest, dose inferred, filed as 0.5)
This is part of a sample that, as a whole, favours compounds with a hit. Of some 79,000 tested, about 15% had one in any assay. Calls of active or inactive are those of the source. Cut-off read from the data, not from the text of the source: active = growth inhibition above about 70%; inactive = the rest.
Outcomes: true for active, false for inactive

{"columns": ["MOLECULE", "LABEL VALUE"],
 "data": [
  ["CCCCN(CCCC)CCCCCCCCCCO", "false"],
  ["Cc1ccc(Nc2n[nH]c(=S)s2)cc1F", "false"],
  ["[Cl-].[Rh+3].c1ccc(-c2ccnc3c2ccc2c(-c4ccccc4)ccnc23)cc1.c1ccc(-c2ccnc3c2ccc2c(-c4ccccc4)ccnc23)cc1.c1ccc(-c2ccnc3c2ccc2c(-c4ccccc4)ccnc23)cc1", "false"],
  ["CCCCCCCCCCCCCCCc1ccc(C(=O)C[n+]2ccccc2)cc1", "false"],
  ["O=C(CO)NCCO", "false"],
  ["Clc1ccc(-n2ncc3c(NCCCN4CCOCC4)ncnc32)cc1", "false"],
  ["S=C1SCN(Cc2cccs2)CN1Cc1cccs1", "false"],
  ["C[n+]1ccccc1C[n+]1ccccc1", "false"],
  ["Cc1ccc2[nH]cc(CC(=O)O)c2c1", "true"],
  ["N#C/C(=N\\Nc1ccc(Cl)cc1)C(=O)C1CC1", "false"],
  ["CCCCCC[C@@H](O)C/C=C\\CCCCCCCC(=O)OCCOC", "false"],
  ["CCCC(=O)c1ccc([N+](=O)[O-])o1", "false"],
  ["O=C1C(=O)c2cc([N+](=O)[O-])ccc2-c2ccccc21", "false"],
  ["CCCCCCCCCCCCCCCC[N+]1(C)CCCC1c1cccnc1 (centres undefined)", "true"]
]}

* * *

PROTOCOL DETAILS: NCI Yeast Anticancer Drug Screen. Data for the mec2-1 strain (AID 157)
MEASUREMENT CONDITIONS: S. cerevisiae mec2-1 strain, at 5.0 µM (retest, dose inferred, filed as 0.5)
Compounds without any hit were thinned out: in the full panel of roughly 79,000, 15% have a hit. Active and inactive are the calls of the source. Rule as the data show it: active = growth inhibition above about 70%; inactive = the rest.
Outcomes: active, inactive

{"columns": ["MOLECULE", "LABEL VALUE"],
 "data": [
  ["CCCCCCCCCCCC1=NCCCN1CCCC", "inactive"],
  ["CCOc1ccc2c(c1)/C(=C\\C=C\\C1CC(C)C3CC(OCC)CCC3N1CC)CC(C)N2CC (stereo unspecified)", "inactive"],
  ["Cc1ccc(NC(=S)C#N)cc1Cl", "inactive"],
  ["CCN(CC)CC(O)c1cc(-c2ccc(Cl)cc2)nc2cc(Cl)ccc12 (stereo unspecified)", "inactive"],
  ["CC(=O)Nc1ccc(/C=N/NC(=S)NCC(C)C)cc1", "inactive"],
  ["C/C(=N\\NC(=S)N1CCC1)c1ccccn1", "active"]
]}

* * *

PROTOCOL DETAILS: NCI Yeast Anticancer Drug Screen. Data for the mec2-1 strain (AID 157)
MEASUREMENT CONDITIONS: S. cerevisiae mec2-1 strain, at 5.0 µM (retest, dose inferred, filed as 0.5), stronger effect = higher value
Experimental: Growth inhibition of yeast strains with defined genetic alterations is measured as a screen for potential anti-cancer activity. Selected strains with alterations in DNA damage repair or cell cycle control were exposed to compounds and growth inhibition was measured relative to vehicle treated controls. The strain used in this assay is mec2-1
Compounds without any hit were thinned out: in the full panel of roughly 79,000, 15% have a hit.

{"columns": ["COMPOUND", "UNIT NAME", "growth inhibition"],
 "data": [
  ["Cc1cc2nc(CC(=O)c3ccncc3)c(=O)[nH]c2cc1C", "%", 8],
  ["Cc1cc(C)c([I+]c2c(C)cc(C)cc2C)c(C)c1", "%", 20],
  ["CC(=O)Nc1nc(-c2ccccc2)cs1", "%", -4],
  ["C=CCCCCCCCCC(=O)NN", "%", -1],
  ["CC1(O)CCCCCC1", "%", -29],
  ["Cc1ccccc1N=NC(C#N)C#N", "%", 40],
  ["CSc1nc(C)c(C(=O)CCN2CCN(c3ccccn3)CC2)s1", "%", -3],
  ["COC(=O)c1nc(=S)[nH]c(C(=O)OC)c1C(=O)c1ccc(Cl)c(Cl)c1", "%", -1],
  ["O=C(c1ccccc1)C(Br)[N+](=O)[O-] (stereo not drawn)", "%", 99],
  ["CCCCC(CC)CNC(=O)CI (stereo not drawn)", "%", -2],
  ["C=[CH][Sn]([CH]=C)([O]c1cccc2cccnc12)[O]c1cccc2cccnc12", "%", 25],
  ["CC1=C(/C=C/C(C)=C/C(=O)O)C(C)(C)CCC1", "%", -2],
  ["CC(C)c1cc([N+](=O)[O-])c(O)c([N+](=O)[O-])c1", "%", 14],
  ["CCOC(=O)/C(=C\\c1ccc2ccccc2c1)P(=O)(OCC)OCC", "%", 3],
  ["CCOC(=O)NC(/C=C/c1ccccc1)NC(=O)OCC", "%", -1],
  ["Nc1ccc(-c2ccc(N)c(S(=O)(=O)O)c2)cc1S(=O)(=O)O", "%", 4],
  ["Cn1ccc(=Nc2ccc(NC(=O)c3ccc(N=c4ccn(C)c5ccc([N+](=O)[O-])cc45)cc3)cc2)cc1", "%", 80],
  ["CCCCCCCCCCCC[N+]1(CCCCCCCCCCCC)CCCC(C)C1 (stereo not drawn)", "%", 100],
  ["COC(=O)c1ccc(Cl)c(NN)c1", "%", 29],
  ["O=C1C=CC(=O)N1c1ccc(O)cc1", "%", 23],
  ["Nc1cccc2cccc([N+](=O)[O-])c12", "%", -47],
  ["O=C1C(=O)c2cc([N+](=O)[O-])ccc2-c2ccccc21", "%", 34],
  ["O=C(Nc1ccc(Cl)c(Cl)c1)OCc1ccco1", "%", 38],
  ["CCCC(=O)c1ccc([N+](=O)[O-])o1", "%", 7],
  ["O=C(CO)NCCO", "%", 3],
  ["CC(C)(C)S(=O)(=O)O.[Ag]", "%", 100],
  ["COC(=O)[C@]1(C)CCC[C@]2(C)c3ccc(C(C)C)cc3C(=O)[C@@H](Br)[C@@H]12", "%", -2],
  ["OC(c1cc(-c2ccc(C(F)(F)F)cc2)nc(C(F)(F)F)c1)C1CCCCN1 (stereo not drawn)", "%", 24],
  ["NC1=C(Br)C(=O)c2ncccc2C1=O", "%", 19],
  ["CN(C)c1ccc2cc3c(cc2c1)Oc1ccccc1N3.[Cl][Zn][Cl]", "%", 38],
  ["CC(=O)N1CC(=O)NC1=S", "%", -11],
  ["COc1ccc(N=NC(C#N)C#N)cc1", "%", 6],
  ["O=C1C=CC(O)=CC1=P(c1ccccc1)(c1ccccc1)c1ccccc1", "%", -1],
  ["COC1CC(C)C(OC)c2cc(O)cc(c2O)NC(=O)/C(C)=C/C=C\\C(C)C(OC(N)=O)/C(C)=C\\C(C)C1OC (stereo not drawn)", "%", 95],
  ["c1ccc2sc(SSN3CC4CCC(CC4)C3)nc2c1", "%", 19],
  ["Nc1cccc2c1-c1ccccc1C2=O", "%", 1],
  ["CCNc1nnnn1CC", "%", -2],
  ["CCOc1ccc(Nc2nc3c(s2)C(=O)c2ccccc2C3=O)cc1", "%", 99]
]}

The reported measurements were obtained from PubChem BioAssay (NCI).
